- system.under.test: Glycogen phosphorylase, liver form (Homo sapiens, UniProt P06737)
- Sequence (P06737 whole entry): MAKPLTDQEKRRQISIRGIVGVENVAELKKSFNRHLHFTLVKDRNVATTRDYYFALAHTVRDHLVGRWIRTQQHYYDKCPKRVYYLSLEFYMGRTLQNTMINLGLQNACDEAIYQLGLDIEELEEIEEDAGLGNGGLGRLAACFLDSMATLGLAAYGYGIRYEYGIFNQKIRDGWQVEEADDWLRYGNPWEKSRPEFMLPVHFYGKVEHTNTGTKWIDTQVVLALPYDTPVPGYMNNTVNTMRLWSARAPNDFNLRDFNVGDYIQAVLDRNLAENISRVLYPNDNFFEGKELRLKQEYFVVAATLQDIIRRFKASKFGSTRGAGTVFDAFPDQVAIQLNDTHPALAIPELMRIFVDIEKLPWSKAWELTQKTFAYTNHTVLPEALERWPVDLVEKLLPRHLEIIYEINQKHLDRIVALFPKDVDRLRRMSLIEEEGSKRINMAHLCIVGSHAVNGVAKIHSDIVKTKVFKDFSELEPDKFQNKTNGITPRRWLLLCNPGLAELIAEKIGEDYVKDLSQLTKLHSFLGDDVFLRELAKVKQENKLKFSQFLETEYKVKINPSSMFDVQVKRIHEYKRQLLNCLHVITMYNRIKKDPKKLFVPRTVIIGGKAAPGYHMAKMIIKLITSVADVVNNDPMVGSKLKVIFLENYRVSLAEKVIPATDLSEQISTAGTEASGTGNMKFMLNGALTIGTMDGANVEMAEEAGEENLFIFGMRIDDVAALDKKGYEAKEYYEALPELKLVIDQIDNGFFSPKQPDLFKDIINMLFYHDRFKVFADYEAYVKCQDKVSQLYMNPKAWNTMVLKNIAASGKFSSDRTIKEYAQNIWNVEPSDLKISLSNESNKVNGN
- assay.protocol: Inhibition of human liver glycogen phosphorylase a
pIC50: −log10 of the molar value.
Think of 6 as a floor: if pIC50 stands on it or above, it is y; beneath it, n.

compound="O=C(Nc1ccc(C(O)CO)cn1)c1cc2cc(Cl)ccc2[nH]1 (stereo unspecified)" assigned_label=y
compound="COc1cc(NC(=O)c2cc3cc(Cl)ccc3[nH]2)ccc1C(O)CO (stereo unspecified)" assigned_label=n
compound="O=C(Nc1ncc(C(O)CO)s1)c1cc2cc(Cl)ccc2[nH]1 (stereo unspecified)" assigned_label=n
compound="Cc1cc(C(O)CO)ccc1NC(=O)c1cc2cc(Cl)ccc2[nH]1 (stereo unspecified)" assigned_label=n
compound="O=C(Nc1cnc(C(O)CO)cn1)c1cc2cc(Cl)ccc2[nH]1 (stereo unspecified)" assigned_label=y
compound=O=C(Nc1cccc(CCO)c1)c1cc2cc(Cl)ccc2[nH]1 assigned_label=n

Values were extracted from ChEMBL document CHEMBL1150300.
